tested on: U2OS; assay: Multiplex assay against U2OS; type: toxicity, cell-based; conditions: human, 24 h, 10 µM, compound concentration 10 uM, replicate 2
valueType: Total Cell Count

>>> df
                                   compound         valuetype  readoutnumber
0  O=C1NC(=O)C(c2cnc3ccccn23)=C1c1cn2c3c(cc(F)cc13)CN(C(=O)N1CCCCC1)CC2 [LY-2090314]  Total Cell Count             72
1  CCN1CCN(c2ccc(Nc3cc(N(C)C(=O)Nc4c(Cl)c(OC)cc(OC)c4Cl)ncn3)cc2)CC1 [INFIGRATINIB]  Total Cell Count             81
2  CCCS(=O)(=O)c1nc(NC2CC2)cc(-c2ccc3c(ccn3C3CC(C)(C)NC(C)(C)C3)c2)n1  Total Cell Count            104
3  COc1cccc2cc(-c3nc([C@H]4CC[C@H](C(=O)O)CC4)n4ncnc(N)c34)[nH]c12 [OSI-027]  Total Cell Count            120

----------
system: U2OS; test: Multiplex assay against U2OS; format: toxicity, cell-based; conditions: human, 48 h, 10 µM, compound concentration 10 uM, replicate 1
Just so you know, the groups by Population Fragmented Nuclei (%) go like this: lower segment: < 20%; middle segment: ≥ 20% and < 30%; upper segment: ≥ 30%

In [3]: df
Out[3]:
                                    compound  qualitativelabel
 0  CNc1cc(Oc2cc(C(=O)Nc3cc(N4CCN(C)CC4)cc(C(F)(F)F)c3)ccc2C)ncn1     upper segment
 1  C=C1/C(=C\C=C2/CCC[C@]3(C)[C@@H]([C@H](C)/C=C/[C@H](C)C(C)C)CC[C@@H]23)C[C@@H](O)C[C@@H]1O [DOXERCALCIFEROL]     upper segment
 2  CN1CCN(C(=O)C(C)(C)c2ccc(C(=O)Nc3cn4cc(-c5ccncc5)ccc4n3)cc2)CC1 [T3-CLK]     upper segment
 3  CN(C)C(=O)C(CCN1CCC(O)(c2ccc(Cl)cc2)CC1)(c1ccccc1)c1ccccc1.Cl [LOPERAMIDE HYDROCHLORIDE]     upper segment
 4  O=C(Cc1ccc(-c2ccc(OCCN3CCOCC3)cc2)cn1)NCc1ccccc1 [TIRBANIBULIN]    middle segment
 5  O=C(Nc1ccc(Cl)cc1)Nc1cccc(-c2cccc(N3CCCC3)n2)c1    middle segment
 6  CCOC(=O)c1c(C)[nH]c2ccc3c(c12)CN1CCc2cc(OC)ccc2C1O3 (stereo unspecified)     lower segment
 7  Cc1cc(C)c(S(=O)(=O)N(Cc2ccc(-c3cccc(S(C)(=O)=O)c3)cc2)Cc2ccc(C(F)(F)F)o2)c(C)c1     lower segment
 8  CCn1c(=O)c(-c2ccc(-c3cncs3)cc2Cl)cc2cnc(Nc3ccc(N4CCN(C)CC4)cc3)nc21     upper segment
 9  CCOc1cc(C(=O)N2CCC(N3CCN(C)CC3)CC2)ccc1Nc1ncc2c(n1)N(C1CCCC1)c1ccccc1C(=O)N2C     upper segment
10  CN1CCC(=C2c3ccccc3CC(=O)c3sccc32)CC1.O=C(O)/C=C/C(=O)O [KETOTIFEN FUMARATE]     lower segment

----------
test system: U2OS; experiment: Multiplex assay against U2OS; type: toxicity, cell-based; settings: human, 48 h, 10 µM, compound concentration 10 uM, replicate 1

itemSmiles	Total Cell Count
Cc1cn(-c2cc(NC(=O)c3ccc(C)c(Nc4nccc(-c5cccnc5)n4)c3)cc(C(F)(F)F)c2)cn1	245
CNc1cc(Oc2cc(C(=O)Nc3cc(N4CCN(C)CC4)cc(C(F)(F)F)c3)ccc2C)ncn1	142
Cl.Oc1ccc2c3c1O[C@H]1c4[nH]c5c(c4C[C@@]4(O)[C@@H](C2)N(CC2CC2)CC[C@]314)C[C@@]1(O)[C@H]2Cc3ccc(O)c4c3[C@@]1(CCN2CC1CC1)[C@H]5O4	365
